System: SNB-19 CNS
Test: NCI-60 one-dose screen, 48 h (100 = growth as untreated, 0 = no growth, -100 = all killed)
Conditions: 10 µM
Description: Growth inhibition of the SNB-19 human tumor cell line is measured as a screen for anti-cancer activity. Cells are grown in 96 well plates and exposed to the test compound for 48 hours. Compounds are tested at a single concentration, which is 10^-5 M for most compounds. The reported endpoint is percent growth (GI% or GIPRCNT), where numbers from 0 - 100% represent growth inhibition, and numbers from -100% - 0 represent cell death. For example, a value of 40 represents 60% growth inhibition. […]
Compounds without any hit were thinned out: in the full panel of roughly 83,000, 20% have a hit.
This listing pairs compounds with measured growth.
# unit: % | format: bare number

In [3]: df
Out[3]:
                                   compound  test_target  unit_of_measurement  recorded_result
0  COc1ccc2c(c1)C(=O)c1c-2c(=O)n(CCCN(C)C)c2cc(OC)c(OC)cc12   SNB-19 CNS                    %             59.2
1  O=C(Nc1nc2ccccc2s1)Nc1ccc([N+](=O)[O-])cc1Cl   SNB-19 CNS                    %              111
2  Cc1ccc(NC(=O)CSc2nc3ccccc3c(=O)n2CCc2ccccc2)c(C(=O)O)c1   SNB-19 CNS                    %              105
3          Cc1cc(C)c(CCc2cc(C)c(C)cc2C)cc1C   SNB-19 CNS                    %              105
4  COc1cc(NC(=O)c2sc3nc4c(cc3c2N)C(O)CCC4)cc(OC)c1 (stereo not given)   SNB-19 CNS                    %             93.6

I have this compound here, "CCCCCCc1cc(N=Nc2ccc(S(=O)(=O)Nc3cc(C)nc(C)n3)cc2)c(O)cc1O" , and I need its recorded growth.
103

Same again, this time with "O=c1oc2cc(OS(=O)(=O)c3ccccc3)ccc2c2c1CCCCC2"
77

Moving on to the next compound: "O=C(Nc1ccc(CN2CCc3nc4cc(O)c(O)cc4cc32)cc1)c1ccc(Cl)c(Cl)c1"
96.7

// same read-out, input: "COc1cc(CNCCCCCCN2C(=O)c3cccc4cccc(c34)C2=O)ccc1O"
84.3

# repeat for "O=C1/C(=C/c2ccc([N+](=O)[O-])o2)Oc2ccccc21"
89.4

---

Test system: NCI/ADR-RES ovarian
Assay: NCI-60 one-dose screen, 48 h
Conditions: 10 µM
The panel holds about 83,000 compounds, 20% with a hit somewhere; the sample as a whole holds those more often. Active and inactive are the calls of the source. The calls were made as follows: active = growth percent below 10; inactive = the rest.
Just give me one of these, please: active, inactive

These recorded examples may help you get a feel for the data.
COMPOUND	CLASS_NAME
O=C(CC(c1ccccc1)N1CCOCC1)c1ccccc1 (stereo unspecified)	inactive
O=C(/C=C/c1cc2ccccc2[nH]c1=O)c1ccc2c(c1)OCO2	inactive
COc1cc(-c2cc(/C=C/C(=O)c3ccc4c(c3)OCO4)[nH]n2)cc(OC)c1OC	inactive

Hi, do you know how "CN(C)CCN=c1nc2c(c(N)n1-c1ccccc1)c(=S)n(-c1ccccc1)c(=S)n2-c1ccccc1" came out in this test?
inactive

// query: "CC(=O)CSC(C)=O"
inactive

---

Tested on: RXF 393 renal
Test: NCI-60 one-dose screen, 48 h
Settings: 10 µM
About 83,000 compounds went through this panel and 20% of them were active in at least one assay; those are over-represented in the sample as a whole. Active and inactive are the calls of the source. How the source made its calls: active means growth percent below 10; inactive means the rest.
Parameter call: string, one of active, inactive

                      molecule  class_name
0  c1ccc([C@H]2CN3CCSC3=N2)cc1    inactive

Hey, what did the test say about "Nc1nccc(Nc2ccccc2)n1" ?
inactive

Also check "CCCCCC(=O)c1ccc(OCCCN2CCN(C(=O)OCC)CC2)cc1"
inactive

Then what about the molecule "Cc1cc(=O)[nH]c(N/N=C/c2ccccc2O)n1" ?
inactive

Entry "COc1cc(-c2cc(/C=C/C(=O)c3ccc4c(c3)OCO4)[nH]n2)cc(OC)c1OC" please
inactive

Likewise for "O=C(Nc1ccncc1)C(=O)c1cn(S(=O)(=O)c2ccc(F)cc2)c2ccccc12" ?
inactive

Input S=C1SCC(c2ccccc2)S1 (configuration not stated)
inactive

Field entry: "COc1ccc(-c2csc(NC(=O)CSc3nc(C)c(-c4ccccc4)n3Nc3ccccc3)n2)cc1"
inactive

Then what about the molecule CCCCC(CCCCCC(CCCC)NCc1ccc2c(c1)OCO2)NCc1ccc2c(c1)OCO2 (configuration not stated) ?
active

---

Tested on: TK-10 renal
Assay: NCI-60 one-dose screen, 48 h
Details: 10 µM
Compounds without any hit were thinned out: in the full panel of roughly 83,000, 20% have a hit. Activity calls are given as the source filed them. How the source made its calls: active means growth percent below 10; inactive means the rest.
Hi! Could you answer with just one of these? 1.0 = active, 0.0 = inactive

Past entries and their recorded results:
COMPOUND	CLASS_NAME
Nc1c(C(=O)Nc2ccccc2Cl)sc2nc3c(cc12)C(=O)CCC3	0.0
O=C1Nc2ccccc2C1=NC1CCCCC1	0.0
C=C(NC(=O)C(=C)NC(=O)c1csc(C2=NC3c4csc(n4)C4NC(=O)c5csc(n5)C(C(C)(O)C(C)O)NC(=O)C5CSC(=N5)/C(=C/C)NC(=O)C(C(C)O)NC(=O)c5csc(n5)C3(CC2)NC(=O)C(C)NC(=O)C(=C)NC(=O)C(=C)NC(=O)C(C(C)C)NC2C=Cc3c(C(C)O)cc(nc3C2O)C(=O)OC4C)n1)C(N)=O (stereo not drawn)	1.0
COc1ccc(Nc2ccnc(NCCNc3ccnc4cc(Cl)ccc34)n2)cc1	0.0
COc1ccc(Cn2c(C(N)=O)cc3c2-c2nc(N)ncc2CCC3)cc1	0.0
c1ccc2c(-c3nc(N4CCOCC4)c4c5c(sc4n3)CCCCCC5)cccc2c1	0.0
O=C(N/N=C\c1cc(Cl)ccc1[N+](=O)[O-])c1ccco1	0.0
COc1cc(CNCCCCCCN2C(=O)c3cccc4cccc(c34)C2=O)ccc1O	0.0

GET /call?item= "COc1ccc(-c2nc3sc(C4CC4)nn3c2/C=C2/C(=O)Nc3ccc(OC)cc32)cc1" returns the recorded outcome of this test.
0.0

Repeat for the following compound: "COc1cc(/C=C\c2cc(OC)c(OC)c(OC)c2)cc(NS(=O)(=O)c2ccc(Cl)cc2)c1OC"
0.0

What about "COc1ccc2c(c1)C(=O)c1c-2c(OCCN(C)C)nc2cc(OC)c(OC)cc12" ?
0.0

Ok, now "COc1ccc(-c2nn(-c3cccc(NC(=O)c4ccc(N5CCOCC5)c(C(F)(F)F)c4)c3)cc2-c2ccncc2)cc1Cl"
0.0

Same thing, different compound: "CCN(CC)CCC(=O)Nc1cccc2c1C(=O)c1c(c(O)c3ccccc3c1O)C2=O"
0.0

Another compound to look at: "COc1ccc(S(=O)(=O)NCCCNc2nccc(-c3c(-c4ccc(F)cc4)nc4sccn34)n2)cc1"
0.0

Another compound: "COc1ccc2c(c1)sc1nc(-c3ccccc3)c(-c3ccc(O)c(OC)c3)n12"
0.0

---

Tested on: SF-295 CNS
Assay: NCI-60 one-dose screen, 48 h
Conditions: 10 µM
This is part of a sample that, as a whole, favours compounds with a hit. Of some 83,000 tested, about 20% had one in any assay. Active and inactive are the calls of the source. How the source made its calls: active means growth percent below 10; inactive means the rest.
Mark one answer only. Choices: active, inactive

// known answers, use as guide
>>> df
                                 mol_smiles  class_name
0               S=c1[nH]ccn1-c1c(Cl)cccc1Cl    inactive
1  Cc1ccc(NC(=O)CSc2nc3ccccc3c(=O)n2CCc2ccccc2)c(C(=O)O)c1    inactive
2      CN(C)c1ccc(N=C2C=CC(=O)c3ccccc32)cc1    inactive

Assay result, entry "COc1ccc(-c2nn(-c3cccc(NC(=O)Nc4cccc(C(F)(F)F)c4)c3)cc2-c2ccncc2)cc1Cl" — outcome?
active

Moving on to the next compound: "Cc1ccc(Nc2nnc(-c3cc(-c4ccncc4)n(-c4ccccc4)n3)s2)cc1"
inactive

---

Test system: HCT-116 colon
Test: NCI-60 one-dose screen, 48 h (100 = growth as untreated, 0 = no growth, -100 = all killed)
Conditions: 10 µM
This is part of a sample that, as a whole, favours compounds with a hit. Of some 83,000 tested, about 20% had one in any assay.
Please respond with true when measured growth is strictly beneath 60%, and with false in all other cases.

In [3]: df
Out[3]:
                                   compound    test_target  class_name
0  N#CCCN1C/C(=C/c2ccccc2)C(=O)/C(=C/c2ccccc2)C1  HCT-116 colon        true
1  Cc1ccc(C(=O)N2C/C(=C/c3ccc(F)cc3)C(=O)/C(=C/c3ccc(F)cc3)C2)cc1  HCT-116 colon        true
2  O=C(Nc1ccc(CO)cc1)c1ccccc1Nc1ccnc(C(F)(F)F)c1  HCT-116 colon       false
3  COc1ccc(-c2nc(-c3nc4ccc(Cl)cc4[nH]3)c3ccccn23)cc1  HCT-116 colon        true
4  COc1ccc(Nc2cc(C)nc(NCCCNc3ccnc4cc(Cl)ccc34)n2)cc1  HCT-116 colon        true

API: query returns whether the compound falls strictly under 60% in growth. Query: COc1cccc(NC(=O)c2sc3nc4c(cc3c2N)C(O)CCC4)c1 (configuration not stated)
true

Now the compound "O=C(c1ccc(Cl)cc1Cl)N1CCOCC1"
false

Now consider "CC(=O)N1C/C(=C/c2ccc(Cl)cc2)C(=O)/C(=C/c2ccc(Cl)cc2)C1" and answer again.
true

"Cc1ccc(NC(=O)Nc2c(Cl)cccc2Cl)cn1" , same question.
false

Origin of measurements: PubChem BioAssay (NCI)
